MEASUREMENT TARGET: T1, serum purified human Complement Factor D (human, UniProt P00746 26-253)
T1 construct: Serum purified protein flowed over the captured antibodies; also called CFD; human CFD
T1 sequence (P00746 26-253): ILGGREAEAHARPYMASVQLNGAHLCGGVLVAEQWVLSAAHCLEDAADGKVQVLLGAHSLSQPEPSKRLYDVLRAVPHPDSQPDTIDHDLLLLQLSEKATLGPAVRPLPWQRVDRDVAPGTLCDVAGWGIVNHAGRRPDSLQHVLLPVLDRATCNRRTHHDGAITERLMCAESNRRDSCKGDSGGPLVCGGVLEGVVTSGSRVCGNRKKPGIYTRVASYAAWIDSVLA
MEASUREMENT PROTOCOL: SPR Biacore, antibody on protein A chip, single cycle kinetics, 25 C;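 note: antibodies captured to roughly 70 RU on the protein A surface in HBS-EP+ running buffer, with kinetic constants derived by BIAevaluation fitting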
MEASURE: koff (s⁻¹)
// note: answer is a bare numeric in s⁻¹

Example entries and their recorded answers appear below.
{"BINDER": "31S54I59D / 32W60W101V (antibody, V domains shown, KCD119 TAF variant; full antibody captured on protein A) VH: EVQLVESGGGLVQPGGSLRLSCAASGYTFTSYYMNWVRQAPGKGLEWIGDINPITGDTDYNADFKRRFTFSLDTSKSTAYLQMNSLRAEDTAVYYCTREGPSFAYWGQGTLVTVSS VL: DIQLTQSPSSLSASVGDRVTITCRSSQTIVHWNGDTYLEWYQQKPGKAPNLLIYKVSNRWSGVPSRFSGSGSGTDFTLTISSLQPEDFATYYCFQGSHVPVTFGQGTKVEIK", "koff, s⁻¹": "6.3e-05"}
{"BINDER": "28K31S54V59D / 101V (antibody, V domains shown, KCD119 TAF variant; full antibody captured on protein A) VH: EVQLVESGGGLVQPGGSLRLSCAASGYKFTSYYMNWVRQAPGKGLEWIGDINPVTGDTDYNADFKRRFTFSLDTSKSTAYLQMNSLRAEDTAVYYCTREGPSFAYWGQGTLVTVSS VL: DIQLTQSPSSLSASVGDRVTITCRSSQTIVHSNGDTYLEWYQQKPGKAPNLLIYKVSNRFSGVPSRFSGSGSGTDFTLTISSLQPEDFATYYCFQGSHVPVTFGQGTKVEIK", "koff, s⁻¹": 0.000163}

Continue with the next binder.
-- ask Fill in: koff of 54V59D / 32D50I101V (antibody, V domains shown, KCD119 TAF variant; full antibody captured on protein A) VH: EVQLVESGGGLVQPGGSLRLSCAASGYTFTDYYMNWVRQAPGKGLEWIGDINPVTGDTDYNADFKRRFTFSLDTSKSTAYLQMNSLRAEDTAVYYCTREGPSFAYWGQGTLVTVSS VL: DIQLTQSPSSLSASVGDRVTITCRSSQTIVHDNGDTYLEWYQQKPGKAPILLIYKVSNRFSGVPSRFSGSGSGTDFTLTISSLQPEDFATYYCFQGSHVPVTFGQGTKVEIK is ___
-- reply 0.00016
